Recorded values, source patent US12723255B2.

Below is a list of entries, each paired with its recorded Replicate 1 quizalofop-P activity value.
Experiment: high-throughput enzyme assay with crude bacterial extract
Assay type: biochemical
Settings: relative to wild-type RdpA
Description: The high-throughput bacterial protein expression was achieved by synthesizing a recombinant DNA molecule encoding each engineered protein and cloning this into a bacterial expression vector with a C-terminal histidine tag (His-tag) operably linked to the recombinant DNA molecule. […] Using this high-throughput bacterial protein expression and enzyme assay system, activities of approximately 1200 engineered proteins were measured relative to the activity of a selected wild-type protein, RdpA. […]
reported.metric: Replicate 1 quizalofop-P activity

molecule	reported.metric	number
MON-HT52: engineered oxygenase protein, amino acid sequence SEQ ID NO:4 (protein) MHAALSPLSQRFERIAVQPLTGVLGAEITGVDLREPLDDSTWNEILDAFHTYQVIYFPGQAITNEQQIAFSRRFGPVDPVPLLKSIEGYPEVQMIRREANESGRVIGDDWHTDSTFLDAPPAAVVMRAIDVPEHGGDTGFLSMYTAYDALSDGLKKLISGLNVVHSATRVFGSLYQAQNRRFSNTSVKVMDVDAGDRETVHPLVVTHPGSGRKGLYVNQVYCQRIEGMSEKESEPLLSFLFAHATKPEFTCRVRWKKDQVLVWDNLCTMHYAINDYHGQTRILHRTTVGGVRPAR	Replicate 1 quizalofop-P activity	92.17
MON-HT54: engineered oxygenase protein, amino acid sequence SEQ ID NO:9 (protein) MHAALSPLSQRFERIAVQPLTGVLGAEITGVDLREPLDDSTWNEILDAFHTYQVIYFPGQAITNEQHIAFSRRFGPVDPVPLLKSIEGYPEVQMIRREANESGRVLGDDWHTDSTFLDAPPAAVVMRAIDVPEHGGDTGFLSMYTAYDALSDGLKKLISGLNVVHSATRVFGSLYQAQNRRFSNTSVKVMDVADGDRETVHPLVVTHPGSGRKGLYVNQVYCQRIEGMSEKESEPLLSFLFAHATKPEFTCRVRWKKDQVVVWDNLCTMHYAINDYHGQTRILHRTTVGGVRPAR	Replicate 1 quizalofop-P activity	131.85
MON-HT51: engineered oxygenase protein, amino acid sequence SEQ ID NO:1 (protein) MHAALSPLSQRFERIAVQPLTGVLGAEITGVDLREPLSDSTWNEILDAFHTYQVIYFPGQAITNEQHIAFSRRFGPVDPVPLLKSIEGYPEVQMIRREANESGRVIGDDWHTDSSFLDAPPAAVVMRAIDVPEHGGDTGFLSMYTAYDALSDGLKKLISGLNVVHSATRVFGSLYQAQNRRFSNTSVKVMDVADGDRETVHPLVVTHPGSGRKGLYVNQVYCQRIEGMSEKESEPLLSFLFAHATKPEFTCRVRWKKDQVLVWDNLCTMHYAINDYHGQTRILHRTTVGGVRPAR	Replicate 1 quizalofop-P activity	117.02
